Biological target: hERG channel (Homo sapiens, UniProt Q12809)
Construct: expressed in transfected cells; host or cells: CHO (Chinese hamster ovary)
Sequence (Q12809 whole entry): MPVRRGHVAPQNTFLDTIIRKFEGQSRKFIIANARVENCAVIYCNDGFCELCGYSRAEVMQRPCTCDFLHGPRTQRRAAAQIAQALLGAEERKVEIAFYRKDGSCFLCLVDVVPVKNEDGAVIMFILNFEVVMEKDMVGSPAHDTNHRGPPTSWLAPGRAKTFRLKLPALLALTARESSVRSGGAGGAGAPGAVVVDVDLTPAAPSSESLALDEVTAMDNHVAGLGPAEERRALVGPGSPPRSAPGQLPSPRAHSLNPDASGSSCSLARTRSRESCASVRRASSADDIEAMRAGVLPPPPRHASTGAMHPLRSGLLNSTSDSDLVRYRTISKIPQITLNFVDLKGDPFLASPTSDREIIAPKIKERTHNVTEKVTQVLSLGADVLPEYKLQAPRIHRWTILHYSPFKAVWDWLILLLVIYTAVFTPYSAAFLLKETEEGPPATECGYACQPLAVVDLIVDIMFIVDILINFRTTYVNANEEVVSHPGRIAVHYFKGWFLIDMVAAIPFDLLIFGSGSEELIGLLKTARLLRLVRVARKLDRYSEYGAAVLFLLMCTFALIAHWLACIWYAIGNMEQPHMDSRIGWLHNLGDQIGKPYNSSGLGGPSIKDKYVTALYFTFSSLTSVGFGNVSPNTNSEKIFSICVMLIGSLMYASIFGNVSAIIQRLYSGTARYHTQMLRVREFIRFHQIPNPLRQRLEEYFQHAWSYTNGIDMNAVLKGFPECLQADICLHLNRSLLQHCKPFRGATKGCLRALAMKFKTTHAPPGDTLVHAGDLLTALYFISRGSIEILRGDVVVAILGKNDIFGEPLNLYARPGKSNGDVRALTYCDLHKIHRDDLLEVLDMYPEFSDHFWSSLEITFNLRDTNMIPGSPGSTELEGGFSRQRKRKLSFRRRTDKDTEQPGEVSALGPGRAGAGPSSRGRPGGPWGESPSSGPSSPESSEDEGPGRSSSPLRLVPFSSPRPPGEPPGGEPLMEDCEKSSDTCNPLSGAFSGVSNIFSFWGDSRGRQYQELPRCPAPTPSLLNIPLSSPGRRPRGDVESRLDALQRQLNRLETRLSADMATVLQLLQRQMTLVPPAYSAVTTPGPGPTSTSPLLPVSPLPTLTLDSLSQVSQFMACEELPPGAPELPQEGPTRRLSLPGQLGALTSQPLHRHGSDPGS
Experiment: hERG channel inhibition assay (patch-clamp, CHOhERG cells)
Assay type: cell-based
Conditions: safety ratio

| chemical_string | target_desc | hERG IC20/TLR9 IC50 |
| --- | --- | --- |
| Cc1cc(N2CCNCC2)nc(N2CCN(C[C@H]3CN(c4ccc(C#N)c5nccnc45)C[C@@H](C)O3)CC2)n1 | hERG channel (Homo sapiens, UniProt Q12809) | >161 |
| [2H]c1ccc2c(N3C[C@H](CN4CCN(c5ccc(N6CC(C)(N)C6)nc5)CC4)O[C@H](C)C3)ccc(C#N)c2n1 | hERG channel (Homo sapiens, UniProt Q12809) | >71 |
| C[C@@H]1CN(c2ccc(C#N)n3ncc(F)c23)C[C@H](CN2CCN(c3ccc(N[C@H]4CNC[C@H]4F)nc3)CC2)O1 | hERG channel (Homo sapiens, UniProt Q12809) | >217 |
| C[C@@H]1CN(c2ccc(C#N)c3ncccc23)C[C@H](CN2CCN(c3ccnc(N4CCNCC4)n3)CC2)O1 | hERG channel (Homo sapiens, UniProt Q12809) | >278 |
| CO[C@@H]1CN(c2nccc(N3CCN(C[C@H]4CN(c5ccc(C#N)c6nccnc56)C[C@@H](C)O4)CC3)n2)C[C@H]1N | hERG channel (Homo sapiens, UniProt Q12809) | >204 |
| C[C@@H]1CN(c2ccc(C#N)c3ncccc23)C[C@H](CN2CCN(c3cncc(N4CCNCC4)c3)CC2)O1 | hERG channel (Homo sapiens, UniProt Q12809) | >196 |
| C[C@@H]1CN(c2ccc(C#N)n3ncc(F)c23)C[C@H](CN2CCN(c3ccc(N4CC(C)(N)C4)nc3)CC2)O1 | hERG channel (Homo sapiens, UniProt Q12809) | >89 |
| [2H]c1nc2c(C#N)ccc(N3C[C@H](CN4CCN(c5nc(C)cc(N6CC(N)C6)n5)CC4)O[C@H](C)C3)c2nc1[2H] | hERG channel (Homo sapiens, UniProt Q12809) | >322 |
| C[C@@H]1CN(c2ccc(C#N)c3nccnc23)C[C@H](CN2CCN(c3nccc(N4CC(N)C4)n3)CC2)O1 | hERG channel (Homo sapiens, UniProt Q12809) | >196 |
